# STUDY_SYSTEM: T1, MPDZ_12, O75970
# T1 sequence (O75970 1857-1958, limits assumed, looked up): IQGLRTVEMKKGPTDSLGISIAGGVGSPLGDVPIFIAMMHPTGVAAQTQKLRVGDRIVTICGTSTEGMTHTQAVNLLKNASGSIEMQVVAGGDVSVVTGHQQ
# METHOD_DESCRIPTION: holdup assay
# Set-up: key: below the threshold = too weak to quantify, mostly under pKd 3.1 to 4
# EXPERIMENTAL_PARAMETERS: plain residues with an end cap or a label only (N-terminal biotin on a linker: ado-ado)

BINDER: SQPLLVHDDV [KIT, P10721]
pKd: below the threshold
--
BINDER: QRYPGNQTTC [CCL24, O00175]
pKd: below the threshold
--
BINDER: VYEVPVETKF [SLC26A3, P40879]
pKd: below the threshold
--
BINDER: TKDKVQETQI [LRRC4, Q9HBW1]
pKd: below the threshold
